pIC50: recorded values
- Target System: P. falciparum DXR (Plasmodium falciparum, UniProt Q8IKG4)
- Construct: His6 (N); made in house; host or cells: Escherichia coli Rosetta2(DE3)
- Sequence (Q8IKG4 73-488): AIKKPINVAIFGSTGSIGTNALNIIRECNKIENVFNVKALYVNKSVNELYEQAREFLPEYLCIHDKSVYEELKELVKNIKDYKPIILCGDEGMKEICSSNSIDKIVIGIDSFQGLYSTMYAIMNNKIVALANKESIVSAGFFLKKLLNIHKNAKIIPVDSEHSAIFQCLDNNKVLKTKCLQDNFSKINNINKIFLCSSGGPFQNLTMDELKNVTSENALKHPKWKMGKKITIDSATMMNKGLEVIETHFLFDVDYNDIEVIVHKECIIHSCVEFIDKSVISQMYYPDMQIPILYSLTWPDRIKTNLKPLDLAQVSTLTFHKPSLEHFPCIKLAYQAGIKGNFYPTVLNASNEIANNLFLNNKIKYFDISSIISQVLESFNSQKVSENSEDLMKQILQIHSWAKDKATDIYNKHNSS
- Measurement Notes: Plasmodium falciparum DXR enzyme IC50
- Assay type: biochemical
- Experimental Setup: recombinant His-tagged enzyme; read-out: P. f. DXR IC50
- Protocol: Recombinant protein was expressed in Escherichia coli Rosetta2(DE3) cells obtained from Novagen (San Diego, CA). E. coli was cultured at 37° C. in Luria-Bertani (LB) media supplemented with 100 μg/mL ampicillin and 34 μg/ml chloramphenicol with constant shaking at 250 rpm. Agar (1.5% wt/vol) was added to prepare solid media. Cloning. Expression, and Purification of P falciparum DXR The P falciparum dxr gene was truncated to begin at Lys 75 to remove the apicoplast signaling sequence. […]
Remember, pIC50 is on a log scale: it is -log10 of the molar concentration.

Below: 6 molecules and their reported pIC50.
# Molecule, Measure, Result Value
records = [
    ("CC(C)(C)c1ccc(C(=O)N(O)C/C=C/P(=O)(O)O)cc1 [Na/H, 4-t-butylphenyl]", "pIC50", 4.42),
    ("O=C(c1ccc2ccccc2c1)N(O)C/C=C/P(=O)(O)O [Na/H, 2-naphthyl]", "pIC50", 6.33),
    ("O=C(c1ccc(C(F)(F)F)cc1)N(O)C/C=C/P(=O)(O)O [Na/H, 4-trifluoromethylphenyl]", "pIC50", 6.84),
    ("O=C(c1ccc(F)cc1)N(O)C/C=C/P(=O)(O)O [Na/H, 4-fluorophenyl]", "pIC50", 7.39),
    ("O=C(c1ccncc1)N(O)C/C=C/P(=O)(O)O [Na/H, 4-pyridinyl]", "pIC50", 6.28),
    ("O=C(c1cccc2ccccc12)N(O)C/C=C/P(=O)(O)O [Na/H, 1-naphthyl]", "pIC50", 5.75),
]

Turning to the following molecule.
For the molecule O=C(c1cccc(C(F)(F)F)c1)N(O)C/C=C/P(=O)(O)O [Na/H, 3-trifluoromethylphenyl] , give its measured pIC50 value.
7.32

====

Catalogue of pIC50 readings, one per entry.
- Target System: P. falciparum DXR (Plasmodium falciparum, UniProt Q8IKG4)
- Construct: His6 (N); made in house; host or cells: Escherichia coli Rosetta2(DE3)
- Measurement Notes: Plasmodium falciparum DXR enzyme IC50
- Type: biochemical
- Experimental Setup: recombinant His-tagged enzyme; read-out: P. f. DXR IC50
For clarity, pIC50 is expressed as the negative log10 of concentration in mol/L.

# Compound, pIC50
measured = [
    ("Cc1ccc(C(=O)N(O)C/C=C/P(=O)(O)O)cc1", 6.79),
    ("O=C(c1cccc(Cl)c1)N(O)C/C=C/P(=O)(O)O", 6.80),
    ("O=C(c1cccc(C(F)(F)F)c1)N(O)C/C=C/P(=O)(O)O [NH4,3-trifluoromethylphenyl]", 7.31),
    ("O=C(c1ccc(F)cc1)N(O)C/C=C/P(=O)(O)O [NH4,4-fluorophenyl]", 7.42),
]

Report pIC50 for O=C(c1ccc(-c2ccccc2)cc1)N(O)C/C=C/P(=O)(O)O
6.54

Provenance of the data: patent US20240239821A1
